Target: T1, human Myl9-His (human, UniProt P24844 2-172, limits assumed)
T1 construct: Made in E. coli; the GST tag was cleaved with PreScission Protease
T1 sequence: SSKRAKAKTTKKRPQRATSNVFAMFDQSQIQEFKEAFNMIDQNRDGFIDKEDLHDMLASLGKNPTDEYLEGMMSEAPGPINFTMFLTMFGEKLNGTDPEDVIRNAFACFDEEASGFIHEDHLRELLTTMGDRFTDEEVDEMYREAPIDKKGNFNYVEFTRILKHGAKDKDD
Assay: ELISA, human Myl9-His coated, anti-human IgG-HRP
QUANTITY: binding result

Please review the following examples before continuing.
[[record]]
binder = "Humanized antibody No. 112 (antibody, human IgG2, kappa, V domains shown, human IgG2 (V234A, G237A, C-terminal Lys deleted) / kappa; Expi293F, Protein A purified; also called HK1-5/L1-5) VH: QVQLVQSGAEVKKPGSSVKVSCKASGGTFSDYEMHWVRQAPGQGLEWMGAIDPETGGTAYNQKFKGRVTITADKSTSTAYMELSSLRSEDTAVYYCADYDYDGFAYWGQGTLVTVSS VL: DIVMTQSPLSLSITPGEQASISCRSSQSLVHSNGNTYLHWYLQKPGQSPQLLISKVSNRFSGVPDRFSGSGSGTDFTLKISRVEAEDVGVYFCSQNTHVPPLTFGGGTKVEIKR"
result = "binds"

[[record]]
binder = "Humanized antibody No. 114 (antibody, human IgG2, kappa, V domains shown, human IgG2 (V234A, G237A, C-terminal Lys deleted) / kappa; Expi293F, Protein A purified; also called HK1-4/L1-5) VH: QVQLVQSGAEVKKPGSSVKVSCKASGGTFSDYEMHWVRQAPGQGLEWMGAIDPETGGTAYNQKFKGRATITADKSTSTAYMELRSLRSEDTAVYYCADYDYDGFAYWGQGTLVTVSS VL: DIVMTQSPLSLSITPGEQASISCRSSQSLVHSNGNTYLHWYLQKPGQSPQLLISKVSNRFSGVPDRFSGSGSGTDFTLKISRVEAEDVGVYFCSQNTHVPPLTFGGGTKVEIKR"
result = "binds"

[[record]]
binder = "Humanized antibody No. 127 (antibody, human IgG2, kappa, V domains shown, human IgG2 (V234A, G237A, C-terminal Lys deleted) / kappa; Expi293F, Protein A purified; also called HK2-5/L4-2) VH: QVQLVQSGAEVKKPGASVKVSCKASGYTFTDYEMHWVRQAPGQGLEWMGAIDPETGGTAYNQKFKGRVTMTADTSTSTAYMELSSLRSEDTAVYYCADYDYDGFAYWGQGTLVTVSS VL: DIVMTQTPLSSPVTLGQPASISCRSSQSLVHSNGNTYLHWYQQRPGQPPRLLISKVSNRFSGVPDRFSGSGAGTDFTLKISRVEAEDVGVYFCSQNTHVPPLTFGGGTKVEIKR"
result = "binds"

[[record]]
binder = "Humanized antibody No. 128 (antibody, human IgG2, kappa, V domains shown, human IgG2 (V234A, G237A, C-terminal Lys deleted) / kappa; Expi293F, Protein A purified; also called HK2-6/L4-2) VH: QVQLVQSGAEVKKPGASVKVSCKASGYTFTDYEMHWVRQAPGQGLEWMGAIDPETGGTAYNQKFKGRATMTADTSTSTAYMELSSLRSEDTAVYYCADYDYDGFAYWGQGTLVTVSS VL: DIVMTQTPLSSPVTLGQPASISCRSSQSLVHSNGNTYLHWYQQRPGQPPRLLISKVSNRFSGVPDRFSGSGAGTDFTLKISRVEAEDVGVYFCSQNTHVPPLTFGGGTKVEIKR"
result = "binds"


Now let's try a different one.
Query string: Data request, read-out binding result, for Humanized antibody No. 124 (antibody, human IgG2, kappa, V domains shown, human IgG2 (V234A, G237A, C-terminal Lys deleted) / kappa; Expi293F, Protein A purified; also called HK1-6/L4-2) VH: QVQLVQSGAEVKKPGSSVKVSCKASGGTFSDYEMHWVRQAPGQGLEWMGAIDPETGGTAYNQKFKGRVTITADKSTSTAYMELRSLRSEDTAVYYCADYDYDGFAYWGQGTLVTVSS VL: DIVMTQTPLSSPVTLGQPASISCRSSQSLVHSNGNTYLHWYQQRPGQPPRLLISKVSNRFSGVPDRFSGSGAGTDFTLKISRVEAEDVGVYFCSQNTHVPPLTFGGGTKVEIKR
Result string: binds
